# ASSAYED SYSTEM: Delta-type opioid receptor (Homo sapiens)
# Sequence (P41143 whole entry): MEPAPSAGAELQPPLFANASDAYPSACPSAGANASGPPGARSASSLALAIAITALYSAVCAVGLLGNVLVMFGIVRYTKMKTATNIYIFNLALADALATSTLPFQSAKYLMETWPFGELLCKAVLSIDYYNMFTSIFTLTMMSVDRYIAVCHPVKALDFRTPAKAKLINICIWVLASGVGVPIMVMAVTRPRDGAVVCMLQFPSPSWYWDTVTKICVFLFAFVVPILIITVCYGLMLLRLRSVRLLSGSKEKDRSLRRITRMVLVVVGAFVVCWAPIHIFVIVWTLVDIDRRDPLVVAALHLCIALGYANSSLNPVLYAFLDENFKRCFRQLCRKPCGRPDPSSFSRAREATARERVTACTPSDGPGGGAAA
# ASSAY TEXT: Binding affinity to delta opioid receptor
MEASURE NAME: pKi
One number for each entry, as −log10 of the molar value.

Query: What does the record list as pKi for O=c1cc(-c2ccc(O)c(-c3c(O)cc(O)c4c(=O)cc(-c5ccc(O)cc5)oc34)c2)oc2cc(O)cc(O)c12 ?
Reply: 7.44

---

# ASSAY TEXT: Permeability across basolateral to apical side in human Caco-2 cells
# Type: ADME, cell-based
# SETUP CONDITIONS: read-out: permeability
MEASURE NAME: Papp B→A (×10⁻⁶ cm/s)
Give bare numbers, in ×10⁻⁶ cm/s.

Query: What does the record list as Papp B→A for Cc1cc(O)c2c(=O)c3c(O)cc(O)c4c5c(O)cc(O)c6c(=O)c7c(O)cc(C)c8c1c2c(c34)c(c78)c65 ?
Reply: 12

---

# ASSAY TEXT: Plasma concentration in po dosed rat after 270 mins
# Assay type: ADME, organism-based
MEASURE NAME: concentration at 4.5 h (ng/mL)
One number for each entry, in ng/mL.

Query: What does the record list as concentration at 4.5 h for Cc1cc(O)c2c(=O)c3c(O)cc(O)c4c5c(O)cc(O)c6c(=O)c7c(O)cc(C)c8c1c2c(c34)c(c78)c65 ?
Reply: 6

---

# ASSAY TEXT: Permeability across apical to basolateral side in human Caco-2 cells
# Format: ADME, cell-based
# SETUP CONDITIONS: read-out: permeability
MEASURE NAME: Papp A→B (×10⁻⁶ cm/s)
Answers are plain numbers, in ×10⁻⁶ cm/s.

Query: What does the record list as Papp A→B for Cc1cc(O)c2c(=O)c3c(O)cc(O)c4c5c(O)cc(O)c6c(=O)c7c(O)cc(C)c8c1c2c(c34)c(c78)c65 ?
Reply: 0.25

---

# ASSAYED SYSTEM: Cytochrome P450 3A4 (Homo sapiens, UniProt P08684)
# Sequence (P08684 whole entry): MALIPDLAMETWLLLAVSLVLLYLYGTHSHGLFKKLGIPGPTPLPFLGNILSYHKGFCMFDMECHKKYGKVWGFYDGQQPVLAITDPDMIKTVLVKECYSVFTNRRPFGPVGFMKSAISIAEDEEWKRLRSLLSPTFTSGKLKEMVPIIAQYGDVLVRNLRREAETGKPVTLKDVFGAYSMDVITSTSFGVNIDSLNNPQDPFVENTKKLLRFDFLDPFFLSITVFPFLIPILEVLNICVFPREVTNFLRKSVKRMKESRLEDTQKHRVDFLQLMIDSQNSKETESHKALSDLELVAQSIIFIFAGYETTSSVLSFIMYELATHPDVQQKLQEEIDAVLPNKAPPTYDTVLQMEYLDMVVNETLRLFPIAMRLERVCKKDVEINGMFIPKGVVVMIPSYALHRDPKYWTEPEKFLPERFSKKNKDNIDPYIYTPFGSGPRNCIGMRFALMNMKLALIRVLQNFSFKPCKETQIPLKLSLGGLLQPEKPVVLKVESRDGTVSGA
MEASURE NAME: pIC50
One number for each entry, as −log10 of the molar value.

Query: What does the record list as pIC50 for Cc1cc(O)c2c(=O)c3c(O)cc(O)c4c5c(O)cc(O)c6c(=O)c7c(O)cc(C)c8c1c2c(c34)c(c78)c65 [HYPERICIN] ?
Reply: 5.06
